# normalized RNA/DNA level with ligand (log10) listing for each entry below
B1: library; a variant is named by its letters at N, in order (parent)
chain: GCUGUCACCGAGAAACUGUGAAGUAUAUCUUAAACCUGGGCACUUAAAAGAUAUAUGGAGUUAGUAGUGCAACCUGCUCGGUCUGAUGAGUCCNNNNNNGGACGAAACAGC

variants of: B1; test: normalized RNA/DNA level with ligand (relative to sTRSVctl = 100) (log10 (% of sTRSVctl)); HEK293T; ligand: cyclic di-GMP (c-di-GMP-II aptamer); ligand concentration (+) RNA-Seq: 1 mM; higher = less ribozyme self-cleavage, higher mRNA level; conditions: reporter: mCherry (pCS4076), ligand present: yes
Lab note: jot the number down without any unit.

Below, 8 variants whose answers are already recorded.
{"columns": ["variantDesignation", "endpointValue"],
 "data": [
  ["GAGGUU", 1.85],
  ["UCUGUU", 1.82],
  ["ACGUUC", 1.8],
  ["GAGAGU", 1.8],
  ["GCGCUU", 1.78],
  ["CUGUUC", 1.79],
  ["AAAUUG", 1.72],
  ["UGACCC", 1.89]
]}

Pending variant:
Enquiry: Look up normalized RNA/DNA level with ligand (log10) for this variant: `CCCCAA`
Return: 1.76
